The reported numbers originate from patent US20260258115A1.

Molecular target: RSV F on RSV subtype A virus (RSV-A2) (Respiratory Syncytial Virus, subtype A, …, UniProt P03420 26-574)
Test: cell-based or functional assay
neut IC50 (ug/ml) subtype A (wright) for assorted binders
I only need the number, in µg/mL, no unit after it.

These solved cases illustrate the format of a correct answer.
binder: ADI-36670 (antibody, V domains shown) VH: QVQLVQSGAEVKKPGSSVKVSCKASGGTFSTYTINWVRQAPGQGLEWMGRITPSLGVPLSAQKFQGRITISADKSTTTAYMELSSLGSEDTAVYYCASLNYYDTTDYYLGYSDSWGQGTLVTVSS VL: DIVLTQTPATLSVSPGERATLSCRASHSVSNNLAWYQQKPGQAPRLLIYSASTRATGIPARFSGRGSGTEFTLTISSLQPEDFAVYYCQQYNNWPPEYTFGQGTKVDIK
units: µg/mL
numericValue: 0.008
--
binder: ADI-41203 (antibody, V domains shown) VH: QVQLVQSGAEVRKPGESLKISCKASGYRFTNYWIGWVRQMPGKGLEWMGVIYPGDSDTRYSPSFQGQVTMSADKSTNTAYLQWSSLKASDTAIYYCVSLYSDYDYGALDYWGQGTLVTVSS VL: EIVMTQSPATLSVSPGERATLSCRASENVGRNLAWYQQKPGQAPRLLIYGASIRATGILARFSGSGSGTEYTLTISSLQSEDFAVYYCQQYHDWPSFTFGPGTKVDIK
units: µg/mL
numericValue: 0.006
--
binder: ADI-41563 (antibody, V domains shown) VH: QVQLVESGPGLVKPSETLSLTCTVSDDSITNNFWTWIRQPPGKGLEWIGYIYYSGSTNYNPSLKSRITMSVDLSKNQFSLKLSSVTAADTAVYYCARLTSGGVDYWGQGTLVTVSS VL: QSVLTQPPSLSGAPGQRVTISCTGSSSNIGADYHVHWYQQLPGTAPKLLIYQNTNRPSGVPDRFSASKSGTSVSLAITGLQAEDEADYYCQSYDSSLSAWVFGGGTKLTVL
units: µg/mL
numericValue: 0.032

Attention now turns to another entry.
Exercise: Recorded neut IC50 (ug/ml) subtype A (wright) for ADI-36677 (antibody, V domains shown) VH: QVQLVQSGGGLVQPGGSLRLSCAASGFTFSSYEMNWVRQAPGKGLEWISYISSSGDTKYYADSVKGRFTVSRDNAKYSLYLQMDSLRAEDTAVYYCASLYDSRGYYWVFDYWGQGTLVTVSS VL: DIVMTQSPSSLSASVGDRVTITCQASQDISTYLNWYQHKPGKAPNLLIYDASNLEPGVPSRFSGSGSGTDFTFTISSLQPEDIATYYCLQHDNLPPTFGQGTKVDIK , please?
Key: 0.019
